Value source: PubChem BioAssay (NCI)

# Tested on: SK-MEL-28 melanoma
# method: NCI tumour cell line growth inhibition, 48 h
Answer each item with its documented TGI.

SK-MEL-28 melanoma data for CC(C)N(C)C(=O)C12C3C4C1C1C2C3C41C#N (centres undefined) ; its TGI: > 100 µM

SK-MEL-28 melanoma data for COc1ccc(-c2cn[nH]c2-c2cc(OC)c3c(c2)OCCO3)cc1 ; its TGI: 46.3 µM

SK-MEL-28 melanoma data for S=C(S)NCC1CCC(CNC(=S)S)CC1 (centres undefined) ; its TGI: > 100 µM

SK-MEL-28 melanoma data for COc1cccc(-c2cc(=O)c3ccc(C)nc3[nH]2)c1 ; its TGI: > 100 µM

SK-MEL-28 melanoma data for CC(C)[C@H]1C(=O)N[C@@H](CCCN=C(N)N)C(=O)NCC(=O)N[C@@H](CC(=O)O)C(=O)N[C@H](Cc2ccccc2)C(=O)N1C ; its TGI: > 100 µM

SK-MEL-28 melanoma data for CCO/C(O)=C(/C(=N)N1CCCC1)C(=O)Nc1cccc(C(F)(F)F)c1 ; its TGI: > 100 µM

SK-MEL-28 melanoma data for COc1cc(/C=C2\CCC(C)C3=C2NC(=S)NC3c2cc(OC)c(OC)c(OC)c2)cc(OC)c1OC (centres undefined) ; its TGI: > 100 µM

SK-MEL-28 melanoma data for COc1ccc2c(c1)/c(=C/c1ccc(N(C)C)cc1)c1cc(-c3ccccc3)[n+](C)n12 ; its TGI: 2.31 µM

SK-MEL-28 melanoma data for CC(C)Oc1cc(O)c2c(c1)OCC=C2CCC(=O)O ; its TGI: > 100 µM

SK-MEL-28 melanoma data for COc1ccc(/C=C2\N=C(c3ccccc3)N(C3Nc4cc5c(cc4S3)NC(N3C(=O)/C(=C/c4ccc(OC)cc4)N=C3c3ccccc3)S5)C2=O)cc1 (centres undefined) ; its TGI: > 100 µM

SK-MEL-28 melanoma data for CC1CCN(CC(=O)N2c3ccccc3Sc3cc4ccccc4cc32)CC1 ; its TGI: > 100 µM

SK-MEL-28 melanoma data for C[N+]1(C)C/C(=C\c2ccncc2)C(=O)/C(=C/c2ccncc2)C1 ; its TGI: > 100 µM

SK-MEL-28 melanoma data for C=C(C=O)CCCC(C)[C@@H]1CCC23CC12CCC1[C@@]2(C)CCC(OC(C)=O)C(C)(C)C2CC(OC2OC(COC(C)=O)C(O)C(O)C2O)[C@]13C (some centres undefined) ; its TGI: 1.77 µM

SK-MEL-28 melanoma data for CC1(COS(=O)(=O)OCC2(C)COS(=O)(=O)OC2)COS(=O)(=O)OC1 ; its TGI: > 100 µM

SK-MEL-28 melanoma data for COC(=O)[C@@H]1C[C@@]2(C3C=CN(C(=O)C(F)(F)F)C=C3)c3ccccc3N(C(=O)C(F)(F)F)[C@H]2N1C(=O)OC ; its TGI: > 100 µM

SK-MEL-28 melanoma data for COc1cc2c(/C=C3/C(=O)N(c4ccccc4)c4ccccc43)c(Cl)[nH]c2cc1C ; its TGI: > 100 µM

SK-MEL-28 melanoma data for Cc1c2cc[n+](C)cc2c(C)c2c1[nH]c1ccc(O)c(OCC(F)(F)F)c12 ; its TGI: 16 µM

SK-MEL-28 melanoma data for Cc1sc2ccccc2[n+]1CCC(=O)O ; its TGI: > 100 µM

SK-MEL-28 melanoma data for O=[N+]([O-])c1nccn1COCCBr ; its TGI: > 100 µM

SK-MEL-28 melanoma data for Oc1ccc(CCc2cc(O)cc(O)c2)cc1 ; its TGI: > 100 µM

SK-MEL-28 melanoma data for O=C1CCC(O)=C1O ; its TGI: > 100 µM

SK-MEL-28 melanoma data for O=C(O)CSc1ncccc1[N+](=O)[O-] ; its TGI: > 100 µM

SK-MEL-28 melanoma data for CC(=O)O[C@H]1C(=O)[C@@]2(C)[C@H]([C@H](OC(=O)c3ccccc3)[C@]3(O)C[C@H](OC(=O)[C@H](O)[C@@H](NC(=O)CC(C)(C)C)c4ccccc4)C(C)=C1C3(C)C)C1(OC(C)=O)CO[C@@H]1C[C@@H]2O (some centres undefined) ; its TGI: > 10 µM

SK-MEL-28 melanoma data for CC1(Cl)CC2C(CC1Sc1nnnn1-c1ccccc1)C2(C)C (centres undefined) ; its TGI: > 100 µM

====

# Test system: HL-60(TB) leukemia
# method: NCI tumour cell line growth inhibition, 48 h
attribute measured: TGI (µM)
Please give a number only; it is taken to be in µM.

Short answer for CC(C)Oc1cc(O)c2c(c1)OCC=C2CCC(=O)O : TGI was 42

Short answer for c1ccc2c(Cc3nnc4sc(SSc5nn6c(Cc7c[nH]c8ccccc78)nnc6s5)nn34)c[nH]c2c1 : TGI was 75.7

Short answer for C=C=C(C(=O)OC)S(=O)c1ccc([N+](=O)[O-])cc1[N+](=O)[O-] (centres undefined) : TGI was 45.3

Short answer for COc1cc(S(=O)(=O)Nc2ccc(-c3csc(N4C(=O)CSC4c4ccccc4)n3)cc2)ccc1Cl (centres undefined) : TGI was 55.7

Short answer for COc1ccc(C(=O)N2c3ccccc3Sc3ccccc32)c(C(F)(F)F)c1 : TGI was 0.793

Short answer for OCC1OC(n2cnc3c(/C=C(/O)c4ccccc4)ncnc32)C(O)C1O (centres undefined) : TGI was 24

Short answer for COc1ccc(Cl)cc1Nc1nc(C(F)(F)F)ccc1C(=O)N/N=C/c1cc(OC)c(OC)c(OC)c1 : TGI was 5.77

Short answer for COC(=O)C1=C(CS(=O)c2ccccc2[N+](=O)[O-])ON(C)C1c1ccccc1 (centres undefined) : TGI was 38.6

Short answer for COC(=O)CCC1=C(C)/C(=C/c2[nH]c(-c3ccc[nH]3)cc2OC)N=C1C : TGI was 2.38

Short answer for COC(=O)C1(Cc2ccccc2)Cc2ccccc2C1 : TGI was 45.8

Short answer for O=C1C(Br)=C(c2ccccc2)S(=O)c2ccccc21 (centres undefined) : TGI was 6.63

Short answer for CCN1CSC(=S)N(CC)C1 : TGI was 47.4

Short answer for CCCCCCN(CCCCCC)CC(O)c1ccc2c3c(cccc13)CC2 (centres undefined) : TGI was 6.16

Short answer for COc1cc(Cn2c(-c3nonc3N)nc3ccccc32)ccc1C : TGI was 50.8

Short answer for O=C1CC(=O)OC(c2ccc([N+](=O)[O-])cc2)O1 : TGI was 5.51

====

# Tested on: A549 NSCLC
# method: NCI tumour cell line growth inhibition, 48 h
attribute measured: TGI

Short answer for Nc1nc(CCC(=O)Nc2cccc(C(F)(F)F)c2)cc(-c2ccc3ccccc3c2)n1 : TGI was > 100 µM

Short answer for O=c1[nH]c(Nc2cccc(Cl)c2)nc2nc[nH]c12 : TGI was > 100 µM

Short answer for COc1cc(C2S/C(=C/c3ccccc3)C(=O)N2c2ccc(Cl)c(Cl)c2)cc(OC)c1OC (stereo unspecified) : TGI was > 100 µM

Short answer for COc1cc(/C=C2/N=C(c3ccccc3)N(C3=NNC4(C(=O)N3)c3ccccc3-c3ccccc34)NC2=O)ccc1O : TGI was 15 µg/mL

Short answer for CC1(Cl)CC2C(CC1Sc1nnnn1-c1ccccc1)C2(C)C (stereo unspecified) : TGI was > 100 µM

Short answer for C=C1C(=O)OC2/C=C(\C=O)CC/C=C(\C)C(O)C[C@@H]12 (stereo partly specified) : TGI was 33.9 µM

Short answer for CCCCOCn1c(=O)[nH]c(=O)c2cc(Br)ccc21 : TGI was > 100 µM

Short answer for c1cc(CNC2C3CCC(C3)C2c2c[nH]c3ccccc23)cc(CNC2C3CCC(C3)C2c2c[nH]c3ccccc23)c1 (stereo unspecified) : TGI was > 100 µM

Short answer for C[N+]1(C)C/C(=C\c2ccncc2)C(=O)/C(=C/c2ccncc2)C1 : TGI was > 100 µM

Short answer for CC1(C)C2CCC3(C2)CS(=O)(=O)N2OC231 (stereo unspecified) : TGI was > 100 µM

Short answer for O=Cc1ccc(-c2cccs2)s1 : TGI was > 100 µM

====

Answer each item with its documented TGI.
# System: MDA-MB-435
# method: NCI tumour cell line growth inhibition, 48 h

Short answer for CN(C)C(=O)O[C@@H]1CN[C@@H](C#Cc2cc3ncnc(Nc4ccc(OCc5cccc(F)c5)c(Cl)c4)c3s2)C1 : TGI was > 25 µM

Short answer for CNC(=S)N/N=C/c1ccc([N+](=O)[O-])s1 : TGI was > 10 µM

Short answer for Cc1c2ccc(N(C)c3ccnc(Nc4cccc(S(N)(=O)=O)c4)n3)cc2nn1C : TGI was > 22.3 µM

====

# Tested on: HOP-62 NSCLC
# method: NCI tumour cell line growth inhibition, 48 h
attribute measured: TGI (µM)
Please give a number only; it is taken to be in µM.

HOP-62 NSCLC data for Cc1cc(-c2nnc3n2CCCCC3)c(C)n1-c1ccc(Cl)c(Cl)c1 ; its TGI: 32.4

HOP-62 NSCLC data for COc1cc(Cn2c(-c3nonc3N)nc3ccccc32)ccc1C ; its TGI: 21.3

HOP-62 NSCLC data for COC(=O)CCCCCN=Cc1c(O)c(O)c(C(C)C)c2cc(C)c(-c3c(C)cc4c(C(C)C)c(O)c(O)c(C=NCCCCCC(=O)OC)c4c3O)c(O)c12 ; its TGI: 28.1
